- experimental.system: Retinoic acid receptor alpha (Homo sapiens) (UniProt P10276)
- Sequence (P10276 whole entry, looked up): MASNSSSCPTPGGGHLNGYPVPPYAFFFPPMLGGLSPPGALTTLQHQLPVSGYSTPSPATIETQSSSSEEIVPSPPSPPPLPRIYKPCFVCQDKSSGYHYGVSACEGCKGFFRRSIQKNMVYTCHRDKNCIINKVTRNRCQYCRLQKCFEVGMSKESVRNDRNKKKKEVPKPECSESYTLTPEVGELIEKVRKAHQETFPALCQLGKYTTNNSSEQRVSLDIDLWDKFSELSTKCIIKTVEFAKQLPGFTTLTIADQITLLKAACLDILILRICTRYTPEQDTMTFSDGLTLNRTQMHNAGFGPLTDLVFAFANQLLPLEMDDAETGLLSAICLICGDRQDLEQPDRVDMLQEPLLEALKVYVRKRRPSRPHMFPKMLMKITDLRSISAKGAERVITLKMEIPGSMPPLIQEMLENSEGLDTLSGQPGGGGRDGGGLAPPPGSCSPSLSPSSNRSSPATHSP
- test.method.notes: ATG_DR5_RAR_CIS: Attagene CIS-FACTORIAL HepG2 Assay for human Retinoic Acid Receptor Alpha (RARE), DR5 submotif (AID 2282934)
- measurement.setup: HepG2 Attagene cis-factorial RARE DR5 reporter, mRNA; actives raise or lower the signal
Active and inactive are the calls of the source. How the source made its calls: active means hit-call score of the fitted dose curve at least 0.9, where 1 is the maximum; inactive means score below 0.9.
Possible outcomes: active, inactive

{"columns": ["compound", "assigned.class"],
 "data": [
  ["CC1(C)S[C@@H]2[C@H](NC(=O)COc3ccccc3)C(=O)N2[C@H]1C(=O)O", "inactive"],
  ["CC(C)=CCC/C(C)=C\\C#N", "inactive"],
  ["CC=C1CC2C=CC1C2 (configuration not stated)", "inactive"],
  ["CCCOCCOCCOCCO", "inactive"],
  ["NC(=O)OCC(COC(N)=O)c1ccccc1", "inactive"],
  ["CC(=O)[C@@]1(O)CC[C@H]2[C@@H]3C[C@H](C)C4=CC(=O)C=C[C@]4(C)[C@@]3(F)[C@@H](O)C[C@@]21C", "active"],
  ["COc1cc(C)ccc1C(C)C", "inactive"],
  ["C[C@]12C=CC(=O)C=C1CC[C@@H]1[C@@H]2[C@@H](O)C[C@@]2(C)[C@H]1CC[C@]2(O)C(=O)CO", "inactive"],
  ["Cn1c(=O)[nH]c2ncn(C)c2c1=O", "inactive"],
  ["NC(=O)NNC(N)=O", "inactive"],
  ["C=CC(=O)OCCC(=O)O", "inactive"],
  ["Nc1ncn([C@@H]2O[C@H](CO)[C@@H](O)[C@H]2O)c(=O)n1", "inactive"]
]}

* * *

- experimental.system: PGR (gene 5241)
- test.method.notes: TOX21_PR_LUC_Followup_Antagonist: Tox21 HEK293 Progesterone Receptor (PR) Antagonism Luciferase Follow-Up Assay (AID 2283938);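 further: curve fitted upward as signal gain over DMSO baseline despite antagonist label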
Records with an inconclusive call do not appear. Active and inactive are the calls of the source. How the source made its calls: active means hit-call score of the fitted dose curve at least 0.9, where 1 is the maximum; inconclusive means response in the unintended direction; inactive means score below 0.9.
Possible outcomes: 1 = active, -1 = inactive

{"columns": ["compound.string", "experimental.system", "assigned.class"],
 "data": [
  ["Cc1ccc(C(C)c2ccc(C)c(C)c2)cc1C", "PGR (gene 5241)", -1],
  ["COc1ccc(C(Cl)=C(c2ccc(OC)cc2)c2ccc(OC)cc2)cc1", "PGR (gene 5241)", 1],
  ["C[C@]12CCC(=O)C=C1CC[C@@H]1[C@@H]2C(=O)C[C@@]2(C)[C@H]1CC[C@]2(O)C(=O)CO", "PGR (gene 5241)", -1],
  ["CCOC(=O)c1ccccc1C(=C1C=C(Br)C(=O)C(Br)=C1)c1cc(Br)c(O)c(Br)c1", "PGR (gene 5241)", 1],
  ["CC(C)(c1cc(Br)c(OCCO)c(Br)c1)c1cc(Br)c(OCCO)c(Br)c1", "PGR (gene 5241)", 1]
]}

* * *

- test.method.notes: ATG_PPRE_CIS: Attagene CIS-FACTORIAL HepG2 Assay for human Peroxisome Proliferator-activated Response Element (PPRE) (AID 2282958)
- measurement.setup: HepG2 PPRE cis-element reporter, Attagene transcription factor profiling; actives raise or lower the signal
Activity calls are given as the source filed them. Rule for the calls: active = hit-call score of the fitted dose curve at least 0.9, where 1 is the maximum; inactive = score below 0.9.
Possible outcomes: active, inactive

{"columns": ["compound", "assigned.class"],
 "data": [
  ["CC1(C)O[C@@H]2C[C@H]3[C@@H]4C[C@H](F)C5=CC(=O)C=C[C@]5(C)[C@@]4(F)[C@@H](O)C[C@]3(C)[C@]2(C(=O)CO)O1", "inactive"],
  ["CC(=O)OC1C2(C)CCC(C2)C1(C)C (stereo not drawn)", "inactive"],
  ["O=C(C(Cl)Cl)N1CCOC12CCCCC2", "inactive"],
  ["CN(C)c1ccc(C(=N)c2ccc(N(C)C)cc2)cc1", "inactive"],
  ["COCC(C)N (stereo not drawn)", "inactive"],
  ["C1=Cc2ccccc2C1", "inactive"],
  ["Cc1ccc([N+](=O)[O-])cc1S(=O)(=O)O", "inactive"],
  ["O=C1CCCC(=O)O1", "inactive"],
  ["CO[Si](OC)(OC)c1ccccc1", "inactive"],
  ["COc1cc(NC(=O)CC(C)=O)c(OC)cc1Cl", "inactive"],
  ["O=C(Cl)c1cc(C(=O)Cl)cc(C(=O)Cl)c1", "active"],
  ["O=C(Nc1cccc(C(F)(F)F)c1)c1cc(Br)cc(Br)c1O", "inactive"],
  ["CC(=O)c1ccc2c(c1)CCCC2", "inactive"]
]}

* * *

- test.method.notes: ATG_E_Box_CIS: Attagene CIS-FACTORIAL HepG2 Assay for human Enhancer Box (E-box) (AID 2282936)
- measurement.setup: HepG2 E-box cis-reporter transcription, actives raise or lower the signal
The source made the active and inactive calls. How the source made its calls: active means hit-call score of the fitted dose curve at least 0.9, where 1 is the maximum; inactive means score below 0.9.

{"columns": ["compound", "AC50"],
 "data": [
  ["CC(=O)OCC(C)OC(C)=O (stereo not given)", "inactive"],
  ["COc1c2ccoc2cc2oc(=O)ccc12", "inactive"],
  ["COc1ccc2nc(N)sc2c1", "inactive"],
  ["C=C(C)C(=O)OCCO", "inactive"],
  ["CCCCCCCCCCCCCOP(=O)(O)O", "inactive"],
  ["CC(C)(C)c1ccc(OC(=O)c2ccccc2O)cc1", "inactive"],
  ["C[Si](C)(CCCN)O[Si](C)(C)CCCN", "inactive"],
  ["CCCC(=O)OCc1ccccc1", "inactive"],
  ["CCCCC/C=C\\CCC=O", "inactive"],
  ["C1=Cc2ccccc2C1", "inactive"],
  ["Cc1ccc(N/N=c2\\c(=O)cc/c(=N/Nc3ccc(S(=O)(=O)O)cc3)c2=O)c(C)c1", "inactive"],
  ["COC=O", "inactive"],
  ["C=C[Si](OC(C)=O)(OC(C)=O)OC(C)=O", "inactive"],
  ["NC(=O)N=NC(N)=O", "inactive"],
  ["CCCCOCCOC(=O)COc1nc(Cl)c(Cl)cc1Cl", "inactive"],
  ["C[Si](C)(C)O[Si](O)(O)O", "inactive"],
  ["Cc1ccc(N)c([N+](=O)[O-])c1", "inactive"],
  ["CC(C)C(=O)C(C)C", "inactive"],
  ["COc1cc(C)ccc1C(C)C", "inactive"],
  ["CCCCCCCCCCCCCCCC(=O)OCC", "inactive"],
  ["O=[N+]([O-])C1(Br)COCOC1", "61 µM (active)"],
  ["c1ccc(-c2ccccn2)nc1", "61.2 µM (active)"],
  ["O=S(=O)(O)c1ccc2cc(O)c(S(=O)(=O)O)cc2c1", "inactive"],
  ["ON(Cc1ccccc1)Cc1ccccc1", "inactive"],
  ["Cn1c([N+](=O)[O-])cnc1COC(N)=O", "inactive"],
  ["[Cl][Nd]([Cl])[Cl]", "inactive"],
  ["N[C@H]1C(O)O[C@H](CO)[C@H](O)[C@@H]1O (stereo not given in full)", "inactive"],
  ["CCN(Cc1cccc(S(=O)(=O)O)c1)c1ccc(C(=C2C=CC(=[N+](CC)Cc3cccc(S(=O)(=O)[O-])c3)C=C2)c2ccccc2)cc1", "inactive"],
  ["O=c1c2ccccc2nnn1CCl", "inactive"],
  ["CNC(=S)N(C)C", "inactive"]
]}

* * *

- experimental.system: Hypoxia-inducible factor 1-alpha (Homo sapiens) (UniProt Q16665)
- Sequence (Q16665 whole entry, looked up): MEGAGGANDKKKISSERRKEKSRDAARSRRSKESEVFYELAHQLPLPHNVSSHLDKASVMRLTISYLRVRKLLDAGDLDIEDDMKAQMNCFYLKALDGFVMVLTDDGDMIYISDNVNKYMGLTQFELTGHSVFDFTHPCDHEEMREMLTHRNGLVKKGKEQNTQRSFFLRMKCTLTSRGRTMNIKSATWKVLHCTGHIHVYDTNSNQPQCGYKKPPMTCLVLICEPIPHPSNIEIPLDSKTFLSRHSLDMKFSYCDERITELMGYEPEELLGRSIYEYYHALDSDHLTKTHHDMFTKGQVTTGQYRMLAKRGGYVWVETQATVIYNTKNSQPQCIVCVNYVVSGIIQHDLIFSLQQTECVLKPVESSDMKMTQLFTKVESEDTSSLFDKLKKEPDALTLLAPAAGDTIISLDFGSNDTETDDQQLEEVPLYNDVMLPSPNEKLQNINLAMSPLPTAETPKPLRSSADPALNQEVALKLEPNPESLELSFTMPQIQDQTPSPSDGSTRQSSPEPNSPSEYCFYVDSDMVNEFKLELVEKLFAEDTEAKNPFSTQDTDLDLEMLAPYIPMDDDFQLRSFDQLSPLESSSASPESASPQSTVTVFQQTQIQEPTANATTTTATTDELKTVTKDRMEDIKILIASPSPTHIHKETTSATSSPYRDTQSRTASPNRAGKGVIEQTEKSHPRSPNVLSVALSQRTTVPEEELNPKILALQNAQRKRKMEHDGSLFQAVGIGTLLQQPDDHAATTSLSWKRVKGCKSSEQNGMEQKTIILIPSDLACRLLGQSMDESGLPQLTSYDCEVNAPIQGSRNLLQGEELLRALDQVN
- test.method.notes: ATG_HIF1a_CIS: Attagene CIS-FACTORIAL HepG2 Assay for human Hypoxia Inducible Factor 1 (HIF1A) (AID 2282951)
- measurement.setup: HepG2 Attagene cis-factorial HIF1a reporter transcription; actives raise or lower the signal
The source made the active and inactive calls. How the source made its calls: active means hit-call score of the fitted dose curve at least 0.9, where 1 is the maximum; inactive means score below 0.9.
Possible outcomes: active, inactive

{"columns": ["compound", "experimental.system", "assigned.class"],
 "data": [
  ["ON(Cc1ccccc1)Cc1ccccc1", "Hypoxia-inducible factor 1-alpha (Homo sapiens) (UniProt Q16665)", "inactive"],
  ["Cc1ccc(C2OC[C@@H]3OC(c4ccc(C)cc4)O[C@H]([C@H](O)CO)[C@@H]3O2)cc1 (stereo partly drawn)", "Hypoxia-inducible factor 1-alpha (Homo sapiens) (UniProt Q16665)", "inactive"],
  ["CCOC(=O)[C@H](C)O", "Hypoxia-inducible factor 1-alpha (Homo sapiens) (UniProt Q16665)", "inactive"],
  ["CCCCCCCCCCCCCOP(=O)(O)O", "Hypoxia-inducible factor 1-alpha (Homo sapiens) (UniProt Q16665)", "inactive"],
  ["CC(CC=O)CCCC(C)(C)O (stereo not drawn)", "Hypoxia-inducible factor 1-alpha (Homo sapiens) (UniProt Q16665)", "inactive"],
  ["CCN(CCC#N)c1ccc(N=Nc2c(Cl)cc([N+](=O)[O-])cc2Cl)cc1", "Hypoxia-inducible factor 1-alpha (Homo sapiens) (UniProt Q16665)", "active"],
  ["CCCCCCCCCCCSCC(=O)O", "Hypoxia-inducible factor 1-alpha (Homo sapiens) (UniProt Q16665)", "active"],
  ["NC(=O)c1ccccc1O", "Hypoxia-inducible factor 1-alpha (Homo sapiens) (UniProt Q16665)", "inactive"],
  ["O=P(O)(O)Oc1ccccc1", "Hypoxia-inducible factor 1-alpha (Homo sapiens) (UniProt Q16665)", "inactive"],
  ["Cc1ccc2oc(=O)ccc2c1", "Hypoxia-inducible factor 1-alpha (Homo sapiens) (UniProt Q16665)", "inactive"],
  ["CCC(CC)C(=O)O", "Hypoxia-inducible factor 1-alpha (Homo sapiens) (UniProt Q16665)", "inactive"],
  ["[Cl][Nd]([Cl])[Cl]", "Hypoxia-inducible factor 1-alpha (Homo sapiens) (UniProt Q16665)", "inactive"],
  ["CCOC(=O)CC", "Hypoxia-inducible factor 1-alpha (Homo sapiens) (UniProt Q16665)", "inactive"],
  ["SCCc1cnccn1", "Hypoxia-inducible factor 1-alpha (Homo sapiens) (UniProt Q16665)", "inactive"],
  ["CC(C)c1ccc(C=O)cc1", "Hypoxia-inducible factor 1-alpha (Homo sapiens) (UniProt Q16665)", "inactive"],
  ["c1c[nH]cn1", "Hypoxia-inducible factor 1-alpha (Homo sapiens) (UniProt Q16665)", "inactive"],
  ["Cc1cc(C)c(C)c(O)c1", "Hypoxia-inducible factor 1-alpha (Homo sapiens) (UniProt Q16665)", "inactive"],
  ["COC(=O)/C=C\\C(=O)O", "Hypoxia-inducible factor 1-alpha (Homo sapiens) (UniProt Q16665)", "inactive"],
  ["C/C=C\\C/C=C/CCCCCCCCOC(C)=O", "Hypoxia-inducible factor 1-alpha (Homo sapiens) (UniProt Q16665)", "inactive"],
  ["CCOC(=O)Cc1cccc2ccccc12", "Hypoxia-inducible factor 1-alpha (Homo sapiens) (UniProt Q16665)", "inactive"],
  ["CC(=O)c1ccc2c(c1)CCCC2", "Hypoxia-inducible factor 1-alpha (Homo sapiens) (UniProt Q16665)", "inactive"],
  ["O=C(C=Cc1ccccc1)OCc1ccccc1", "Hypoxia-inducible factor 1-alpha (Homo sapiens) (UniProt Q16665)", "inactive"],
  ["O=S1(=O)OC(c2ccc(O)cc2)(c2ccc(O)cc2)c2ccccc21", "Hypoxia-inducible factor 1-alpha (Homo sapiens) (UniProt Q16665)", "inactive"],
  ["CC(C)C(=O)C(C)C", "Hypoxia-inducible factor 1-alpha (Homo sapiens) (UniProt Q16665)", "inactive"],
  ["C=C(C)[C@H]1CC=C(C)CC1", "Hypoxia-inducible factor 1-alpha (Homo sapiens) (UniProt Q16665)", "inactive"],
  ["Cc1cccc(N)n1", "Hypoxia-inducible factor 1-alpha (Homo sapiens) (UniProt Q16665)", "inactive"],
  ["C=C(C)C(=O)OCCOc1ccccc1", "Hypoxia-inducible factor 1-alpha (Homo sapiens) (UniProt Q16665)", "inactive"],
  ["Cc1ccc(C(C)c2ccc(C)c(C)c2)cc1C", "Hypoxia-inducible factor 1-alpha (Homo sapiens) (UniProt Q16665)", "active"],
  ["CC(=O)Nc1nnc(S(N)(=O)=O)s1", "Hypoxia-inducible factor 1-alpha (Homo sapiens) (UniProt Q16665)", "inactive"],
  ["CC(C)=CCC/C(C)=C\\C#N", "Hypoxia-inducible factor 1-alpha (Homo sapiens) (UniProt Q16665)", "inactive"],
  ["C1=CCCC1", "Hypoxia-inducible factor 1-alpha (Homo sapiens) (UniProt Q16665)", "active"],
  ["CCCCC(CC)COCC1CO1 (stereo not drawn)", "Hypoxia-inducible factor 1-alpha (Homo sapiens) (UniProt Q16665)", "inactive"],
  ["CCC(C)(C)C1CCCCC1OC(C)=O (stereo not drawn)", "Hypoxia-inducible factor 1-alpha (Homo sapiens) (UniProt Q16665)", "inactive"]
]}
